pIC50 overview
# System: MM.1S cells
# test method notes: Inhibitory effect on the proliferation of MM.1S, MTS cell viability test
# Format: cell-based
# experimental setup: Homo sapiens, MM1.S, 168 h, multiple myeloma MM.1S cells, 7 days incubation, read-out: Tumor cell inhibitory activity
pIC50: −log10 of the molar value.

// below: answered compounds
COc1ccc(C2(C#N)CCN(CCCCCc3cccc4c3CN(C3CCC(=O)NC3=O)C4=O)CC2)c(OC)c1OC (stereo not shown) | 4.70 to 6.00
C[C@]1(N2C(=O)c3cccc(OCCCN4CCN(c5cccc(Cl)c5Cl)CC4)c3C2=O)CCC(=O)NC1=O | 4.70 to 6.00
N#CC1(c2ccccc2OC(F)(F)F)CCN(CCCOc2cccc3c2CN(C2CCC(=O)NC2=O)C3=O)CC1 (stereo not shown) | > 7.00

The reported pIC50 of the compound N#CC1(c2cccc(Cl)c2)CCN(C(=O)CCCOc2cccc3c2CN(C2CCC(=O)NC2=O)C3=O)CC1 (stereo not shown) was > 7.00

###

compounds and their reported IC50
# Test system: MM.1S cells
# test method notes: Inhibitory effect on the proliferation of MM.1S, MTS cell viability test
# Assay type: cell-based
# experimental setup: Homo sapiens, MM1.S, 168 h, multiple myeloma MM.1S cells, 7 days incubation, read-out: Tumor cell inhibitory activity

N#CC1(c2cccc(OC(F)(F)F)c2)CCN(CCCCc2cccc3c2CN(C2CCC(=O)NC2=O)C3=O)CC1 (stereo not drawn) | < 100 nM

// IC50 value for CC(=O)N[C@@H](CCCc1cccc2c1CN(C1CCC(=O)NC1=O)C2=O)C(=O)NCc1cccc(Br)c1 (stereo partly drawn) : < 100 nM

// IC50 value for CC(=O)N[C@@H](CCCc1cccc2c1CN(C1CCC(=O)NC1=O)C2=O)C(=O)NCc1cccc(Cl)c1 (stereo partly drawn) : 100 to 1000 nM

Entry under test: N#Cc1ccccc1N1CCN(CCCCc2cccc3c2CN(C2CCC(=O)NC2=O)C3=O)CC1 (stereo not drawn) . Its IC50 was < 100 nM

Per the records, this compound ( O=C1CCC(N2Cc3c(CCCCCN4CCN(c5cc(Cl)ccc5Cl)CC4)cccc3C2=O)C(=O)N1 (stereo not drawn) ) has IC50 equal to 100 to 1000 nM

Measured IC50 of N#CC1(c2ccc(OC3COC3)cc2)CCN(CCCCCc2cccc3c2CN(C2CCC(=O)NC2=O)C3=O)CC1 (stereo not drawn) : 100 to 1000 nM

Summary for this compound, O=C1CCC(N2Cc3c(OCCCC(=O)N4CCC5(CC4)OCc4ccc(Cl)cc45)cccc3C2=O)C(=O)N1 (stereo not drawn) : IC50 is 100 to 1000 nM

Consider Cc1ccc(NC(=O)[C@H](CCCc2cccc3c2CN(C2CCC(=O)NC2=O)C3=O)NC(=O)C(C)C)cc1Cl (stereo partly drawn) . Its measured IC50 is < 100 nM

Input N#CC1(c2cccc(Cl)c2)CCN(CCCCCc2cccc3c2CN(C2CCC(=O)NC2=O)C3=O)CC1 (stereo not drawn) . Output IC50: < 100 nM

Measured IC50 of O=C1CCC(N2Cc3c(CCCCN4CCN(c5noc6ccccc56)CC4)cccc3C2=O)C(=O)N1 (stereo not drawn) : 1000 to 20000 nM

The measured IC50 associated with O=C1CCC(N2Cc3c(CCC[C@H](NC(=O)C4CC4)C(=O)NCc4ccccc4)cccc3C2=O)C(=O)N1 (stereo partly drawn) reads < 100 nM

Briefly, IC50 measured for O=C1CCC(N2Cc3c(CCCCCN4CCN(c5cccc6ccsc56)CC4)cccc3C2=O)C(=O)N1 (stereo not drawn) : 1000 to 20000 nM

O=C1CCC(N2Cc3c(CCCCCN4CCc5cc(Br)ccc54)cccc3C2=O)C(=O)N1 (stereo not drawn) yielded IC50 of < 100 nM

Summary for this compound, Cc1cc(COCCCCOc2cccc3c2CN(C2CCC(=O)NC2=O)C3=O)c2ccccc2n1 (stereo not drawn) : IC50 is 100 to 1000 nM

The reported value for O=C1CCC(N2Cc3c(CCCCCN4CCCC4c4ccccc4)cccc3C2=O)C(=O)N1 (stereo not drawn) in terms of IC50 is < 100 nM
